test system: M19-MEL; assay: NCI tumour cell line growth inhibition, 48 h
The source made the active and inactive calls. No stated cut-off is given here; in the data, active = GI50 up to about 1.1 µM and inactive = higher.
Use one of these outcomes when replying: true (1) for active, false (0) for inactive

Illustrative cases are given below, each with its answer.
# compound, label
data = [
    ("COc1cc(/C=C\\c2ccc(Br)cc2)cc(OC)c1OC", "true (1)"),
    ("COC(=O)c1cc(O)ccc1NC(=O)c1ccc(O)cc1", "false (0)"),
    ("C[C@]12Cc3cn[nH]c3C(=O)C1CC[C@@H]1C2CC[C@@]2(C)C1CC[C@]2(C)O (stereo not given in full)", "false (0)"),
]

Request: How was COc1ccc(C2c3cc4c(cc3OC(O)(CO)C2C(=O)O)OCO4)cc1.COc1ccc(C2c3cc4c(cc3OC3(O)COC(=O)C23)OCO4)cc1 (stereo not given) classified in this test?
Response: false (0)

Request: How was CC(=O)CCCCO classified in this test?
Response: false (0)

Request: How was N/N=C1\C(=O)N(CCc2ccccc2)C(=O)C1C(=O)NCCc1ccccc1 (stereo not given) classified in this test?
Response: false (0)

Request: How was c1ccc2c(c1)CCc1c(-c3n[nH]c4c3CCc3ccccc3-4)n[nH]c1-2 classified in this test?
Response: false (0)

Request: How was COc1ccc2c3c(coc13)C(CCC(=O)O)CC2 (stereo not given) classified in this test?
Response: false (0)

Request: How was CCc1cccc(C(C)C)c1NC(=O)CC1Sc2ccccc2NC1=O (stereo not given) classified in this test?
Response: false (0)

Request: How was CCOC(=O)/C(=C\c1ccccc1)C(=O)O classified in this test?
Response: false (0)

Request: How was COc1cc(Cl)c2c3c(c(C(C)=O)oc13)CCC2 classified in this test?
Response: false (0)

====

tested on: BT-549; assay: NCI tumour cell line growth inhibition, 48 h
Calls of active or inactive are those of the source. Cut-off read from the data, not from the text of the source: active = GI50 up to about 1.1 µM and inactive = higher.
Use one of these outcomes when replying: active, inactive

Illustrative cases are given below, each with its answer.
# molecule, label
rows = [
    ("O=C1N/C(=N/N=C/c2ccccc2)N/C1=C\\c1c[nH]c2ccccc12", "inactive"),
    ("CCC(=O)C(CCN1CCC(N2C(=O)C(CCC#N)c3ccccc32)CC1)(c1ccccc1)c1ccccc1 (stereo not given)", "inactive"),
    ("CCCC(=O)NC1CCc2cc(OC)c(OC)c(OC)c2-c2ccc(OC)c(=O)cc21 (stereo not given)", "active"),
    ("O=c1[nH]nc(-c2ccc3ccccc3c2)[nH]1", "inactive"),
]

Request: How was CCN1CCC(O)(c2ccc(Oc3ccc(Cl)cc3)cc2)C(C(=O)c2ccc(Oc3ccc(Cl)cc3)cc2)C1 (stereo not given) classified in this test?
Response: inactive

====

tested on: MOLT-4; experiment: NCI tumour cell line growth inhibition, 48 h
Activity calls are given as the source filed them. Rule as the data show it: active = GI50 up to about 1.1 µM and inactive = higher.
Use one of these outcomes when replying: 1 for active, -1 for inactive

Request: How was CCNC(=S)N/N=C(\C)c1cccc(C)n1 classified in this test?
Response: 1

Request: How was COc1cc(-c2cc(=O)c3c(O)c(OC)c(OC)c(OC)c3o2)ccc1O classified in this test?
Response: -1

Request: How was COC(O)C(=O)c1c2c(cc3c1CCC3)CCC2 (stereo unspecified) classified in this test?
Response: -1

Request: How was c1ccc2[nH]c(-c3cscn3)nc2c1 classified in this test?
Response: -1

Request: How was Cc1ccccc1N(CC(=O)O)S(=O)(=O)c1ccccc1 classified in this test?
Response: -1

Request: How was Cc1ccc2c(c1)nc(N)n[n+]2[O-] classified in this test?
Response: -1

Request: How was O=c1cn[nH]c(=S)n1/N=C/c1c[nH]c2ccccc12 classified in this test?
Response: -1

Request: How was O=c1[nH]c(Br)nc2c(N3CCCCC3)c[nH]c12 classified in this test?
Response: -1

Request: How was Brc1cccc(C2SCc3nc4ccccc4n32)c1 (stereo unspecified) classified in this test?
Response: -1

Request: How was Cc1c2c(n3c(nc4ccccc43)c1C#N)NCC2 classified in this test?
Response: -1

Request: How was COCC1OC(Sc2ccccc2)C(O)C(OC)C1OC (stereo unspecified) classified in this test?
Response: -1

Request: How was COc1ccc(-c2csc3c2-n2cccc2C3=O)cc1 classified in this test?
Response: 1

Request: How was CCOC(=O)C1(C(=O)OCC)CCC(C(OC)OC)C(CC(=O)OC)C1 (stereo unspecified) classified in this test?
Response: -1

Request: How was COc1ccc2c(c1)CC1NC2Cc2ccccc21 (stereo unspecified) classified in this test?
Response: -1

Request: How was O=C(O)C1=NN(c2ccc(S(=O)(=O)O)cc2)C2(C1)SCC(=O)N2c1nc2ccccc2s1 (stereo unspecified) classified in this test?
Response: -1

Request: How was CC1(C)C(CCO)CC1n1cc(I)c(=O)[nH]c1=O (stereo unspecified) classified in this test?
Response: -1
